Recorded measurements of inhibition at 5 µg/mL, one per entry
- Measured Target: recombinant human SK (Homo sapiens, UniProt Q9NYA1)
- Construct: glutathione-S-transferase (GST); made in house; host or cells: bacteria (PGEX bacterial expression vector, Pharmacia)
- Sequence (Q9NYA1 whole entry): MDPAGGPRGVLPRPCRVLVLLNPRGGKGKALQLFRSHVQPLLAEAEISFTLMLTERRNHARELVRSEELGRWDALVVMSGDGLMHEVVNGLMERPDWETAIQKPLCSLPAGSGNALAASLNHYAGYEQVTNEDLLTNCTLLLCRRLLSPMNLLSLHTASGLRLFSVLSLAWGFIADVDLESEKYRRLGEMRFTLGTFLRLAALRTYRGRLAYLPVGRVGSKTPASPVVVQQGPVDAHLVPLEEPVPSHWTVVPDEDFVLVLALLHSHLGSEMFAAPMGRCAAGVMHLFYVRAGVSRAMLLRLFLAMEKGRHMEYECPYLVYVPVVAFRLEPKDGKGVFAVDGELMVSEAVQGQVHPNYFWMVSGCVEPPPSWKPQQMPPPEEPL
- Test Protocol: Sphingosine kinase screen / inhibition of recombinant human SK ([3H]sphingosine to [3H]S1P)
- Format: biochemical
- Condition: 5 μg/ml of compound (corresponds to 10–25 μM), 1 mM ATP; read-out: inhibited SK activity by %
Where a name gives a salt, the structure may show the parent alone.
Metric: inhibition at 5 µg/mL (%)

| Compound | Units Symbol | Measured Result |
| --- | --- | --- |
| CCOc1ccc2c(c1)NC(C)(C)c1ss/c(=N/c3ccc(O)cc3)c1-2 | % | 81 |
| Cc1cc2nc3s/c(=C\c4cc(I)cc(I)c4O)c(=O)n3c2cc1C | % | 98 |
| COc1ccc(-n2c(SCC(=O)Nc3nc4ccccc4s3)nc(O)cc2=O)cc1 | % | 91 |
| O=S(=O)(c1ccc(O)cc1)c1ccc(O)c(C23CC4CC(CC(C4)C2)C3)c1 [Compound 7, disodium salt] | % | 91 |
| Oc1ccc(Nc2nc(-c3ccc(Cl)cc3)cs2)cc1 | % | 99 |
| N#C/C(=C\c1ccc(O)c(O)c1)c1nc(-c2ccc3c(c2)OCO3)cs1 | % | 94 |
| O=C(/C=C(O)/C(O)=C/C(=O)c1ccccc1)c1ccccc1 | % | 98 |
| O=C1/C(=C/c2ccc(O)c(O)c2)Sc2ccccc21 | % | 89 |
| COc1ccc(N2C(=O)/C(=C\c3ccc(O)cc3O)SC2=S)cc1 | % | 99 |

* * *

- Measured Target: ERK2 (Homo sapiens)
- Sequence (P28482 whole entry): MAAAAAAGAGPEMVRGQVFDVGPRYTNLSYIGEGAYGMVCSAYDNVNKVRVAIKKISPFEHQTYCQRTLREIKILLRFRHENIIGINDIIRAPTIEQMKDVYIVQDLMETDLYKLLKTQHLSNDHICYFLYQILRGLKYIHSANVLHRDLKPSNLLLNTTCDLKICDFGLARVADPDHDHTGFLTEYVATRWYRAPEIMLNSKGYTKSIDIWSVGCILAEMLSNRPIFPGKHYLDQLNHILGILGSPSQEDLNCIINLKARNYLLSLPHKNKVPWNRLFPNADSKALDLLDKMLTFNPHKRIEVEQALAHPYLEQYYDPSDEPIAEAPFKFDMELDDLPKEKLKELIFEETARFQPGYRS
- Test Protocol: Kinase selectivity panel: ERK2
- Type: biochemical
- Condition: human isoform; mean ± SD of triplicate experiments; read-out: ERK2, concentration required to inhibit enzyme activity by 50%
pIC50: −log10 of the molar value.

| Structure String | Modifier Sign | pIC50 |
| --- | --- | --- |
| O=C1/C(=C/c2ccc(O)c(O)c2)Oc2ccccc21 | = | 4.10 |
| O=C1/C(=C/c2ccc(O)c(O)c2)Sc2ccccc21 | = | 4.40 |
| Oc1ccc(Nc2nc(-c3ccc(Cl)cc3)cs2)cc1 | < | 4.22 |
| O=C(N/N=C/c1c(O)ccc2ccccc12)c1cc(-c2ccc3ccccc3c2)n[nH]1 | = | 4.96 |
| COc1ccc(N2C(=O)/C(=C\c3ccc(O)cc3O)SC2=S)cc1 | = | 4.59 |

* * *

- Measured Target: recombinant human SK (Homo sapiens, UniProt Q9NYA1)
- Construct: glutathione-S-transferase (GST)
- Test Protocol: Sphingosine kinase screen / inhibition of recombinant human SK ([3H]sphingosine to [3H]S1P)
- Condition: mean ± SD of triplicate experiments; read-out: SK, concentration required to inhibit enzyme activity by 50%

| Compound | IC50 [nM] |
| --- | --- |
| O=C1/C(=C/c2ccc(O)c(O)c2)Sc2ccccc21 [Compound 4] | 600 |
| O=C(N/N=C/c1c(O)ccc2ccccc12)c1cc(-c2ccc3ccccc3c2)n[nH]1 [Compound 2] | 1200 |
| COc1ccc(N2C(=O)/C(=C\c3ccc(O)cc3O)SC2=S)cc1 [Compound 1] | 2500 |

* * *

- Test system: MCF-7/VP cells (MRP 1 overexpression)
- Test Protocol: Cytotoxicity, SRB binding assay, MCF-7/VP
- Format: cell-based
- Condition: Homo sapiens, MCF7-VP, 48 h treatment, mean ± SD

| Structure String | Measured Target | IC50 |
| --- | --- | --- |
| O=C(N/N=C/c1c(O)ccc2ccccc12)c1cc(-c2ccc3ccccc3c2)n[nH]1 | MCF-7/VP cells (MRP 1 overexpression) | 2900 nM |
| COc1ccc(N2C(=O)/C(=C\c3ccc(O)cc3O)SC2=S)cc1 | MCF-7/VP cells (MRP 1 overexpression) | 24600 nM |
| O=C1/C(=C/c2ccc(O)c(O)c2)Sc2ccccc21 | MCF-7/VP cells (MRP 1 overexpression) | 1800 nM |
| Oc1ccc(Nc2nc(-c3ccc(Cl)cc3)cs2)cc1 | MCF-7/VP cells (MRP 1 overexpression) | 900 nM |

* * *

- Measured Target: PI3K
- Construct: other: human isoform; mean ± SD of triplicate experimen; activity toward PI3K (in words)
- Test Protocol: Kinase selectivity panel: PI3K (lipid kinase)
- Condition: human isoform; mean ± SD of triplicate experiments; read-out: PI3K, concentration required to inhibit enzyme activity by 50%
- Experimental: Thus potencies of each inhibitor were determined for human isoforms of ERK2, PI3K and PKCα. […] Data represent the concentrations required to inhibit enzyme activity by 50%, and are the mean ±SD of triplicate experiments. Results designated as “None” indicate that no inhibition was detected at concentrations up to 60 μM.
pIC50: −log10 of the molar value.
Recorded measurements of pIC50, one per entry
Metric: pIC50

| Structure String | Measured Target | Modifier Sign | Measured Result |
| --- | --- | --- | --- |
| Oc1ccc(Nc2nc(-c3ccc(Cl)cc3)cs2)cc1 | PI3K | < | 4.22 |
| O=C(N/N=C/c1c(O)ccc2ccccc12)c1cc(-c2ccc3ccccc3c2)n[nH]1 | PI3K | < | 4.22 |
| COc1ccc(N2C(=O)/C(=C\c3ccc(O)cc3O)SC2=S)cc1 | PI3K | = | 4.38 |
| O=C1/C(=C/c2ccc(O)c(O)c2)Sc2ccccc21 | PI3K | = | 5.15 |
